Measured values drawn from paper PMC7915724 for this set.

Tested on: biotin-Py24 (VEGF i-motif) (DNA, i motif) GACCCCGCCCCCGGCCCGCCCCGG
procedure.text: SPR
condition.details: 100 mM KCl; 20 mM MES pH 5.5, 0.05% Tween-20, 25 °C; tested up to 50 μM

molecule: COC(=O)[C@]12CCC(C)(C)C[C@H]1[C@H]1C(=O)C[C@@H]3[C@@](C)(CCC(=O)Nc4ccc(F)cc4)[C@H](C(C)(C)O)CC[C@@]3(C)[C@]1(C)CC2
KD: > 50 µM

molecule: CC1(C)CC[C@]2(C(=O)N3CCN(c4ccc(F)cc4F)CC3)CC[C@]3(C)C(=CC[C@@H]4[C@@]5(C)CC[C@H](O)C(C)(C)[C@@H]5CC[C@]43C)[C@@H]2C1
KD: > 50 µM

molecule: CC1(C)CC[C@]2(C(=O)NCc3cn(CCN4CCOCC4)nn3)CC[C@]3(C)C(=CC[C@@H]4[C@@]5(C)CC[C@H](O)C(C)(C)[C@@H]5CC[C@]43C)[C@@H]2C1
KD: > 50 µM

molecule: COC(=O)[C@]12CCC(C)(C)C[C@H]1C1=CC[C@@H]3[C@@]4(C)C=C(C(=O)NCCCc5ccccc5)C(=O)C(C)(C)[C@@H]4CC[C@@]3(C)[C@]1(C)CC2
KD: > 50 µM

molecule: COC(=O)[C@]12CCC(C)(C)C[C@H]1[C@H]1C(=O)C[C@@H]3[C@@](C)(CCC(=O)N4CCN(c5ccc(F)cc5F)CC4)[C@H](C(C)(C)O)CC[C@@]3(C)[C@]1(C)CC2
KD: > 50 µM

molecule: CC1(C)CC[C@]2(C(=O)NCc3cn(CCCc4ccccc4)nn3)CC[C@]3(C)C(=CC[C@@H]4[C@@]5(C)CC[C@H](O)C(C)(C)[C@@H]5CC[C@]43C)[C@@H]2C1
KD: > 50 µM

molecule: COC(=O)[C@]12CCC(C)(C)C[C@H]1C1=CC[C@@H]3[C@@]4(C)C=C(C(=O)NCCc5ccc(C(F)(F)F)cc5)C(=O)C(C)(C)[C@@H]4CC[C@@]3(C)[C@]1(C)CC2
KD: > 50 µM

molecule: CC1(C)CC[C@]2(C(=O)N3CCN(C(=O)Cn4cnc5[nH]c(=O)[nH]c(=O)c54)CC3)CC[C@]3(C)C(=CC[C@@H]4[C@@]5(C)CC[C@H](O)C(C)(C)[C@@H]5CC[C@]43C)[C@@H]2C1
KD: > 50 µM

molecule: COC(=O)[C@]12CCC(C)(C)C[C@H]1[C@H]1C(=O)C[C@@H]3[C@@](C)(CCC(=O)Nc4ccc(OC)cc4)[C@H](C(C)(C)O)CC[C@@]3(C)[C@]1(C)CC2
KD: > 50 µM

molecule: COC(=O)[C@]12CCC(C)(C)C[C@H]1[C@H]1C(=O)C[C@@H]3[C@@](C)(CCC(=O)NCCc4cccs4)[C@H](C(C)(C)O)CC[C@@]3(C)[C@]1(C)CC2
KD: > 50 µM

molecule: CC1(C)CC[C@]2(C(=O)NCc3cn(CCCN4CCCC4)nn3)CC[C@]3(C)C(=CC[C@@H]4[C@@]5(C)CC[C@H](O)C(C)(C)[C@@H]5CC[C@]43C)[C@@H]2C1
KD: > 50 µM
